- MEASUREMENT TARGET: HLA-B*35:01
- EXPERIMENTAL PROTOCOL: IEDB peptide-MHC binding, purified MHC/competitive/radioactivity; filed as Kd, often an IC50 or EC50 that approximates it; bounds were set here for any values at or beyond the usual limits of such assays
- TEST CONTEXT: source organism: Dengue virus 1 Singapore/S275/1990
pKd: −log10 of the molar value.

SEQUENCE | pKd
LAVSGVYPL | 7.08

---

- MEASUREMENT TARGET: HLA-B*57:01
- EXPERIMENTAL PROTOCOL: IEDB peptide-MHC binding, purified MHC/direct/fluorescence; filed as Kd, often an IC50 or EC50 that approximates it; bounds were set here for any values at or beyond the usual limits of such assays
- TEST CONTEXT: source organism: Vibrio cholerae
PROPERTY NAME: Kd

SEQUENCE | PROPERTY NAME | OBSERVED RESULT
IVKQGRDAL | Kd | ≥ 20 µM

Value source: the Immune Epitope Database (IEDB)
